Assay: soluble on expression in E. coli; label from the status in PepcDB or PDB records
Quantity Kind: soluble on expression in E. coli

MGSDKIHHHHHHMPMNIVQVIPSFNVGGGELLAVRLCAEIKNQRPDYKVTLISLYDPIPSIVYDEALASDAQIVTLGKKKGFDPFTPLRMLKTLRAIKPDVIHTHLAGLRYTLLAGVLGNYSLKVHTVHNLATHETFGFLKNVHRVAFKFFSWIPVSLSKEVQDSVRDMYCLESVIVNNGIKTNSEIINKSKEDIRKHYGLPLNSKIIITIGRLCTQKNQLLLIESFNKVCKNAENYTLLIVGEDNLNGSYKNKIDKIISELPDITRENLHLLGPRKDIPELLIASDVFVLSSDWEGVPLTLLEAMGYGTPVVCTSVGGIPDVIEHGFDGLLVSKGDSKSLGNAIIEVLSNNSFASSLAHNARKKFSQLYSIEMTAEKYLQLYNA    not soluble
MSVPDKFFGRYQLDKSENFDEFLSSKGVNWFVRQMIKLAGLTKIISQNQEAGKYNMENLTSKKNTNYQAWELGKKFEAPGLDGNQHEITFDFKDEILSEHHIRLNEPETSAETYFYTIDDQNQLVMRMENNGIVCRRWFKRVEQK    not soluble
AGKTLYGKLWDIHEVARRDDGSSLIYIDRHILHEVTSPQAFEGLRLAGRPLWRVNANIATPDHNVPTTKAERQGSLLSIADTVSRLQVQTLDENCDDFGIFEFKMNDVRQGIVHVIGPEQGATLPGMTVVCGDSHTSTHGAFGALAHGIGTSEVEHVLATQCLVTQKMKN    not soluble

The values you see were collected from the DeepSol protein solubility set.
